Would you mind telling me the reported IC50 of each entry?
test system: MDA-MB-231; experiment: Cytotoxicity against human MDA-MB-231 cells after 72 hrs by MTT assay; type: functional, cell-based; settings: MDA-MB-231, 72 h
One number for each entry, in µM.

The following molecules have reported results that may help.
MOLECULAR STRING | SYSTEM NAME | NUMERIC VALUE
COc1ccc(/C=C/[N+](=O)[O-])cc1O | MDA-MB-231 | 18.9
COc1ccc(/C=C/[N+](=O)[O-])cc1OC(=O)c1ccccc1 | MDA-MB-231 | 7.7
COc1cc(/C=C/[N+](=O)[O-])ccc1OC(=O)c1ccccc1OC | MDA-MB-231 | 19.4
O=[N+]([O-])C(=Cc1ccccc1)[N+](=O)[O-] | MDA-MB-231 | 9.9

// next item, IC50 requested
(Q) Provide measured IC50 on MDA-MB-231 for `CCOc1cc(/C=C/[N+](=O)[O-])ccc1OC(=O)c1ccccc1` please.
(A) 15.3
